# Lookup of reported GI50 keyed by entry
# Tested on: SF-268
# protocol_description: NCI tumour cell line growth inhibition, 48 h
Activity calls are given as the source filed them. No stated cut-off is given here; in the data, active = GI50 up to about 1.1 µM and inactive = higher.

The examples below pair each entry with its known result.
compound	system_name	GI50
CCCCCCCCCCCCCCCCCc1cccc(OCOCCOC)c1CO	SF-268	> 100 µM (inactive)
CC(=O)NC1C(OCc2ccccc2)OC(CO)C(O)C1OCC(=O)N1CCCC1C(=O)N[C@@H](CCC(=O)NCCNCCNc1c2ccccc2nc2cccc([N+](=O)[O-])c12)C(N)=O (some centres undefined)	SF-268	2.41 µM (inactive)
Cc1c(-c2ccccc2)c(C#N)c2nnn(-c3ccc(Cl)cc3)c(=O)n12	SF-268	32.6 µM (inactive)

Which value of GI50 has been reported for Cc1ccc(NC(=O)CC/C(CC(=O)C(C)(C)C)=N/NC(=O)C[N+](C)(C)C)cc1C in the records?
> 100 µM (inactive)

Next compound up: CCOC(=O)c1cnccc1CC1(C#N)c2ccccc2C=CN1C(=O)c1ccccc1 (centres undefined)
23.6 µM (inactive)

Next compound up: N=c1oc2ccccc2cc1-c1nc2ccccc2c(=O)[nH]1
29 µM (inactive)

Next compound up: CC(=O)NC1C(OCc2ccccc2)OC(CO)C(O)C1OCC(=O)N[C@@H](C)C(=O)N[C@H](CCC(=O)NCCCCNc1c2ccccc2nc2cccc([N+](=O)[O-])c12)C(N)=O (some centres undefined)
2.58 µM (inactive)

Next compound up: COC(=O)c1c(OC(C)=O)ccc2c1c1c(OC(C)=O)c3ccccc3c(OC(C)=O)c1n2Cc1cc(OC)cc(OC)c1
5.09 µM (inactive)

Next compound up: COC(=O)C1(NC(=O)C(CC(=O)OCc2ccccc2)NC(=O)OCc2ccccc2)CCCCCCC1 (centres undefined)
44.7 µM (inactive)
